# credit: patent US9394282B2

Molecular target: JAK2 (Homo sapiens (Human))
Sequence (O60674 849-1124): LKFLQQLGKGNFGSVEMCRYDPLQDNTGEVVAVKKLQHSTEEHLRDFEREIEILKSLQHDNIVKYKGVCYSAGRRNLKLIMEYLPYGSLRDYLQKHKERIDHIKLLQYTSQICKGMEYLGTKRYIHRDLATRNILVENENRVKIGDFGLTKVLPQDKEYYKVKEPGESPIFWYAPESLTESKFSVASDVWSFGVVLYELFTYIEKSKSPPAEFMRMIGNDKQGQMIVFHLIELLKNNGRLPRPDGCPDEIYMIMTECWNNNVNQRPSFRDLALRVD
Experiment: Jak biochemical HTRF assay, JAK2
Conditions: recombinant purified GST-tagged catalytic domain; HTRF format; [ATP] 8.5 μM
I'd appreciate it if you marked entries t when IC50 is lower than 0.1 µM and f when it is not.

{"columns": ["compound", "answer label"],
 "data": [
  ["CC(C)COC(=O)N1CC[C@@H](n2cc(C(N)=O)c(Nc3ccc(F)cc3)n2)[C@H](C#N)C1 (racemic)", "f"],
  ["N#C[C@H]1CCOC[C@@H]1n1cc(C(N)=O)c(Nc2ccc(C(F)F)nc2)n1 (single isomer, unassigned)", "f"],
  ["Cc1c(CN2CC[C@@H](n3cc(C(N)=O)c(Nc4ccc(F)cc4)n3)[C@H](C#N)C2)cnn1C (racemic)", "f"],
  ["N#C[C@@H]1CCN(C(=O)OCC(F)(F)CO)CC1n1cc(C(N)=O)c(Nc2ccc(F)cc2)n1 (mixture of isomers)", "t"],
  ["N#C[C@@H]1CCN(CCC2CCOCC2)C[C@H]1n1cc(C(N)=O)c(Nc2ccc(F)cc2)n1 (racemic)", "t"],
  ["N#C[C@@H]1CN(C(=O)OCC(F)(F)CO)CC[C@@H]1n1cc(C(N)=O)c(Nc2ccc(F)cc2)n1 (racemic)", "f"],
  ["CCn1ccnc1CN1CC[C@@H](C#N)[C@H](n2cc(C(N)=O)c(Nc3ccc(F)cc3)n2)C1 (racemic)", "t"]
]}
